Assay: Cytotoxicity against HEL cells
Assay type: cell-based
Conditions: human
property: CC50

Exercise: Recorded CC50 for `CCCc1nc(N)nc(=O)n1C[C@@H](CO)OCP(=O)(O)O` , please?
Key: > 100 µg/mL

Exercise: I am curious: what CC50 value has been reported for `Cc1nc(N)n(C[C@@H](CO)OCP(=O)(O)O)c(=O)n1` ?
Key: > 100 µg/mL

Exercise: CC50 lookup needed for `Cc1nc(N)nc(=O)n1C[C@@H](CO)OCP(=O)(O)O` , thanks.
Key: > 100 µg/mL

Exercise: Item under review: `Nc1nc(-c2ccccc2)n(C[C@@H](CO)OCP(=O)(O)O)c(=O)n1` . Reported CC50?
Key: > 100 µg/mL

Exercise: Recorded CC50 of CCCCCCCCCCCCCCCCOCCOP1(=O)CO[C@@H](Cn2cnc(N)nc2=O)CO1 (some centres undefined) , please.
Key: > 100 µg/mL

Exercise: Need CC50, item `CCc1nc(N)nc(=O)n1C[C@@H](CO)OCP(=O)(O)O`
Key: > 100 µg/mL

Exercise: Fill in: CC50 of `Cc1nc(N)n(C[C@@H](CO)OCP(=O)(O)OC(C)C)c(=O)n1` is ___
Key: > 100 µg/mL

Exercise: Would you mind telling me what CC50 value was observed for `Nc1ncnc(=O)n1C[C@@H](CO)OCP(=O)(O)O` ?
Key: > 100 µg/mL

Exercise: Query (molecule): `CCCCc1nc(N)nc(=O)n1C[C@@H](CO)OCP(=O)(O)O` ; field requested: CC50
Key: > 100 µg/mL

====

Test system: HEL
Experiment: Cytostatic activity against HEL cells
Format: ADME, cell-based
Conditions: human
property: Activity

CCCCc1nc(N)nc(=O)n1C[C@@H](CO)OCP(=O)(O)O; Non-toxic
Cc1nc(N)nc(=O)n1C[C@@H](CO)OCP(=O)(O)O; Non-toxic
CCCCCCCCCCCCCCCCOCCOP1(=O)CO[C@@H](Cn2cnc(N)nc2=O)CO1 (stereo partly drawn); Non-toxic
